# target_or_system: recombinant DYRK1A kinase (Homo sapiens (Human), UniProt Q13627)
# procedure_summary: DYRK1A kinase assay (Ser/Thr 18 peptide Z-lyte, FRET)
# test_context: DYRK1A kinase, 30 μM ATP, one hour; method calls values IC50
parameter: EC50 (nM)
Give the quantity in nM, number only.

Reference set (3 entries):
Q: Name the reported EC50 value associated with the compound Cc1nnc(-c2ccc3cnc(NC(=O)c4cnn(C5CCN(C(C)C)CC5)c4)cc3c2)s1
A: 4

Q: Reported EC50, compound CN(C)C1CN(c2ncc(C(=O)Nc3cc4cc(-c5cnn(C)c5)ccc4cn3)s2)C1 : ____
A: 2

Q: Give its EC50 value. Item: CN1CCN(c2nc(C(=O)Nc3cc4cc(-c5cnn(C)c5)ccc4cn3)co2)CC1
A: 18

***
Q: So what does the record say about EC50 for CC(C)c1nc(C(=O)Nc2cc3cc(-c4cncn4C)ccc3cn2)co1 ?
A: 18

Q: Can you share its EC50? I mean this compound: Cn1cc(-c2ccc3cnc(NC(=O)c4cn(C5CCNCC5)nn4)cc3c2)nn1
A: 7

###

# target_or_system: recombinant GSK3β kinase (Homo sapiens (Human))
# Sequence (P49841 whole entry): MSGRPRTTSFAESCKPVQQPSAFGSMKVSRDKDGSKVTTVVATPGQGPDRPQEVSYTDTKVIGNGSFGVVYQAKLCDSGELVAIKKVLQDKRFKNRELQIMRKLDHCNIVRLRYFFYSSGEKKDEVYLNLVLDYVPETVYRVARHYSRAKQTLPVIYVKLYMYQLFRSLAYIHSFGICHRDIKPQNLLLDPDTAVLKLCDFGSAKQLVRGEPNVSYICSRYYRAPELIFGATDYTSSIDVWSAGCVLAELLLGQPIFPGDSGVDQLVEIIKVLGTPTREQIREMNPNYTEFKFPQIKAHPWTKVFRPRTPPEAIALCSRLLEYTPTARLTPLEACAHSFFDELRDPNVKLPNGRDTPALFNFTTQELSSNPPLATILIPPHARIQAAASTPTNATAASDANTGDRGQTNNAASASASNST
# procedure_summary: GSK3β kinase assay (Ser/Thr 09 peptide Z-lyte, FRET)
# Assay type: biochemical
# test_context: GSK3β kinase, 46 μM ATP, one hour; method calls values IC50
parameter: log10 of EC50 (log10 of the value in nM)
Values reflect log10 of reported EC50 (nM).

Q: For the compound shown here, CC(C)n1cc(C(=O)Nc2cc3cc(-c4cncn4C)ccc3cn2)cn1 , give the reported log10 of EC50.
A: 4.00

---
Q: Recorded log10 of EC50 for CC(C)N1CCC(c2nc(C(=O)Nc3cc4cc(-c5cn(C)nn5)ccc4cn3)co2)CC1 , please?
A: 3.13

Q: Recorded log10 of EC50 of Cn1cncc1-c1ccc2cnc(NC(=O)c3cnn(C4CC4)c3)cc2c1 , please.
A: 3.22

Q: Requested field: log10 of EC50. Item: Cn1cc(-c2ccc3cnc(NC(=O)c4coc(C5CCNCC5)n4)cc3c2)cn1
A: 2.99

Q: Need log10 of EC50 of CC(C)n1cc(C(=O)Nc2cc3cc(-c4cncn4C(C)C)ccc3cn2)cn1 , thanks.
A: 3.85

Q: Any idea what log10 of EC50 was measured for CN1CCC(n2cc(C(=O)Nc3cc4cc(-c5cnn(C)c5)ccc4cn3)nn2)CC1 ?
A: 3.56

Q: Field request: log10 of EC50 | item: Cn1cc(-c2ccc3cnc(NC(=O)c4csc(C5CCNCC5)n4)cc3c2)cn1
A: 3.49

Q: Give the measured log10 of EC50 of Cn1ccc(C(=O)Nc2cc3cc(-c4cncn4C)ccc3cn2)n1 .
A: 3.25

Q: Given CN1CCC(c2nc(C(=O)Nc3cc4cc(-c5cnn(C)c5)ccc4cn3)co2)CC1 , state its recorded log10 of EC50.
A: 3.51

###

# target_or_system: recombinant DYRK1A kinase (Homo sapiens (Human))
# procedure_summary: DYRK1A kinase assay (Ser/Thr 18 peptide Z-lyte, FRET)
# test_context: DYRK1A kinase, 30 μM ATP, one hour; method calls values IC50
parameter: EC50 (nM)
All answers are understood in nM, so give the number only.

Sample records with EC50:
Q: Test system recombinant DYRK1A kinase (Homo sapiens (Human)); read-out EC50; what value for Cc1nnc(-c2ccc3cnc(NC(=O)c4cn(C5CCN(C)CC5)nn4)cc3c2)s1 ?
A: 31

Q: Notebook: pull reported EC50 for recombinant DYRK1A kinase (Homo sapiens (Human)), entry Cc1ncc(-c2ccc3cnc(NC(=O)c4cnn(C(C)C)c4)cc3c2)n1C
A: 5

Q: What is its EC50 for recombinant DYRK1A kinase (Homo sapiens (Human))? Entry: Cc1ncc(C(=O)Nc2cc3cc(-c4cncn4C)ccc3cn2)n1C
A: 4

Q: Notebook entry, recombinant DYRK1A kinase (Homo sapiens (Human)) assay: EC50 of Cn1cc(-c2ccc3cnc(NC(=O)c4csc(C5CCN(CCF)CC5)n4)cc3c2)cn1 = ?
A: 14

New cases:
Q: Recall the recorded EC50 for CN1CCC(c2nc(C(=O)Nc3cc4cc(-c5cnn(C)c5)ccc4cn3)co2)CC1 with recombinant DYRK1A kinase (Homo sapiens (Human)) and state it.
A: 15

Q: Lab request: please report EC50 under test system recombinant DYRK1A kinase (Homo sapiens (Human)) for CC(C)n1cc(C(=O)Nc2cc3cc(-c4cncn4C(C)C)ccc3cn2)cn1
A: 9

Q: Provide value of EC50 for this record tested with recombinant DYRK1A kinase (Homo sapiens (Human)): CCn1cc(C(=O)Nc2cc3cc(-c4cncn4C)ccc3cn2)cn1
A: 2

Q: Give the reported EC50 for Cc1nc(C(=O)Nc2cc3cc(-c4cncn4C)ccc3cn2)co1 (system: recombinant DYRK1A kinase (Homo sapiens (Human))).
A: 14

Q: Lab note: need EC50 for Cc1ncc(C(=O)Nc2cc3cc(-c4cnn(C5CCN(C)CC5)c4)ccc3cn2)s1 on recombinant DYRK1A kinase (Homo sapiens (Human)), anyone have it?
A: 24

Q: Enter reported EC50 observed with recombinant DYRK1A kinase (Homo sapiens (Human)) for Cn1cc(-c2ccc3cnc(NC(=O)c4coc(C5CCNCC5)n4)cc3c2)nn1
A: 19

Q: Record lookup: for recombinant DYRK1A kinase (Homo sapiens (Human)), what EC50 belongs to Cn1cc(-c2ccc3cnc(NC(=O)c4cnn(C5CCN(C6CC6)CC5)c4)cc3c2)cn1 ?
A: 2

Q: Item: CN1CCN(c2nc(C(=O)Nc3cc4cc(-c5cnn(C)c5)ccc4cn3)cs2)CC1 Test system: recombinant DYRK1A kinase (Homo sapiens (Human)) Read-out: EC50 Value: ?
A: 3

Q: Reported EC50 for recombinant DYRK1A kinase (Homo sapiens (Human)), given CN(C)C1CN(c2nc(C(=O)Nc3cc4cc(-c5cnn(C)c5)ccc4cn3)co2)C1 ?
A: 15

Q: Field: EC50 (recombinant DYRK1A kinase (Homo sapiens (Human))). Entry: Cn1cnc(C(=O)Nc2cc3cc(-c4cncn4C)ccc3cn2)c1
A: 18

Q: GET /values?readout=EC50&system=recombinant DYRK1A kinase (Homo sapiens (Human))&item= Cn1cncc1-c1ccc2cnc(NC(=O)c3cn(C4CCOCC4)cn3)cc2c1
A: 21

Q: Lookup: EC50 / recombinant DYRK1A kinase (Homo sapiens (Human)) / CN1CCC(n2cc(C(=O)Nc3cc4cc(-c5cnn(C)c5)ccc4cn3)cn2)CC1
A: 2

Q: Could you share what EC50 was measured for Cc1nc(C(=O)Nc2cc3cc(-c4cncn4C)ccc3cn2)cs1 , tested on recombinant DYRK1A kinase (Homo sapiens (Human))?
A: 6

Q: Form entry - test system: recombinant DYRK1A kinase (Homo sapiens (Human)); read-out: EC50; compound: Cc1csc(C(=O)Nc2cc3cc(-c4cncn4C)ccc3cn2)n1
A: 5
